These data points were gathered from ChEMBL document CHEMBL3351854.

Test system: Plasmodium falciparum
Assay: Antimalarial activity Plasmodium falciparum NF54
Format: functional, organism-based
READOUT TYPE: pIC50
Notebook: values listed as pIC50 are -log10 of the concentration (mol/L).

What measured pIC50 goes with CCOC(=O)CC1CCC2(OCCCC2CC(=O)OCC)OO1 (stereo unspecified) ?
6.80
